src = paper PMC6855259

- Assay Target: HHAT (Homo sapiens, UniProt Q5VTY9)
- Construct: FLAG (C); His (C); made in house; host or cells: HEK293a cells stably overexpressing HHAT-FLAG-His
- Sequence (Q5VTY9 whole entry): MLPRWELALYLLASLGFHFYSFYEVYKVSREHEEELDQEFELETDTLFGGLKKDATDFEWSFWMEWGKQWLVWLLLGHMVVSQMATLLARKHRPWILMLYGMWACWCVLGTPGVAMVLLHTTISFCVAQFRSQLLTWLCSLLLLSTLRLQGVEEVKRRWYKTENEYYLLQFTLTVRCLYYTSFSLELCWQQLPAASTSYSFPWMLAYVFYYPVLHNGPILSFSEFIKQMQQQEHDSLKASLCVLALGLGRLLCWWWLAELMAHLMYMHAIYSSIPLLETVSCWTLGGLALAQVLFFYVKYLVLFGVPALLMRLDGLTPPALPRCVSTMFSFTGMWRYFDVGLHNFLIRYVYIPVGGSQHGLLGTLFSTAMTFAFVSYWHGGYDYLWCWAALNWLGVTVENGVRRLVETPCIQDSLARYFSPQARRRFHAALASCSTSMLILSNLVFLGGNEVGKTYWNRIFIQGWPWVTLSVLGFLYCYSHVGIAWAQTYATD
- Protocol Description: HHAT Acyl-cLIP assay with HHAT-P100(sol): SHH-FAM palmitoylation, dose-response and kinetics
- Type: biochemical
- Condition Notes: HHAT-P100(sol) activity, SHH-FAM palmitoylation, 25 min reaction, four parameter fit; read-out: IC50 of HHAT inhibition

Molecule	IC50 / µM
CCC(C)CNCC(=O)N1CCc2sccc2C1c1cccc(C)n1 (centres unmarked)	2
CCC(C)CNCC(=O)N1CCc2sccc2C1COc1cccc(C)c1 (centres unmarked)	17

----------
- Assay Target: HHAT (Homo sapiens, UniProt Q5VTY9)
- Construct: FLAG (C); His (C); made in house; host or cells: HEK293a cells stably overexpressing HHAT-FLAG-His
- Protocol Description: HHAT Acyl-cLIP assay with HHAT-P100(sol): SHH-FAM palmitoylation, dose-response and kinetics
- Type: biochemical
- Condition Notes: HHAT, SHH-FAM substrate competition; read-out: IC50 as competitive inhibitor of SHH-FAM palmitoylation
Where no end group is shown, it is not given here.

Substance	IC50, µM
CGPGRGFGKRK-NH2 [SHH]	0.37
